# Tested on: MCF7 breast
# assayName: NCI tumour cell line growth inhibition, 48 h; in the data active means GI50 below about 0.43 µM; inactive means the rest
Response enum: True = active, False = inactive

compoundsmiles=COc1ccc2c(c1)C(=O)c1c-2n(CCCN=[N+]=[N-])c(=O)c2cc([N+](=O)[O-])ccc12 testedon="MCF7 breast" answerlabel=True
compoundsmiles=CC1(C)CC[C@]2(C(=O)NCCNCCN)CC[C@]3(C)C(=CC[C@@H]4[C@@]5(C)CCC(=O)C(C)(C)[C@@H]5CC[C@]43C)[C@@H]2C1 testedon="MCF7 breast" answerlabel=False
compoundsmiles=N[C@@H](Cc1c[nH]c2ccccc12)C(=O)NC1CCN(Cc2c[nH]c3ccc(Cl)cc23)CC1 testedon="MCF7 breast" answerlabel=False
compoundsmiles=COc1ccc2c(c1)/C(=C\c1c(-c3ccccc3)nc3sccn13)C(=O)N2 testedon="MCF7 breast" answerlabel=False

Moving on to the next compound.
(Q) Recorded call for O=c1oc2ccc(F)cc2c(=O)n1-c1ccc(I)cc1F ?
(A) False

----------
# Tested on: UACC-62 melanoma
# assayName: NCI tumour cell line growth inhibition, 48 h
observationType: TGI

Examples with answers:
compound=NCCCNCc1c2ccccc2c(CNCCCN)c2ccccc12 value="> 100 µM"
compound=C/C1=C\[C@@H](C)C[C@@H](C)OC(=O)[C@@H](C)NC(=O)[C@H](Cc2ccc(O)c(Br)c2)N(C)C(=O)CNC(=O)[C@H](C)C1 value="> 55.1 µM"

Turning now to a further record.
(Q) Data request, read-out TGI, for C=CC(=C)CCC(Br)C(C)(C)Br (stereo not drawn)
(A) > 100 µM

----------
# Test system: NCI-H522 lung
# assayName: NCI tumour cell line growth inhibition, 48 h
Property: TGI; scope: individual compounds

Solved cases (10 shown):
compound="CON1C(=O)C2(CCCCC2)C(=O)C12C=CC(C)CC2 (centres undefined)" observationtype=TGI value="> 100 µM"
compound="OC(c1cc2ccccc2[nH]1)C(O)(c1cc2ccccc2[nH]1)c1cc2ccccc2[nH]1 (centres undefined)" observationtype=TGI value="37.5 µM"
compound=Cn1nc(-c2ccccc2)c2c(/C=C/c3ccc(F)cc3)onc2c1=O observationtype=TGI value="51.1 µM"
compound=Cc1ccc(F)c2[nH]c(-c3ccccc3)cc(=O)c12 observationtype=TGI value="38.1 µM"
compound=CCCC(=O)Oc1ccc(/C=N/NC(N)=S)nc1 observationtype=TGI value="> 100 µM"
compound=COc1ccc(C/C=C(\C)CCO)cc1 observationtype=TGI value="> 100 µM"
compound="O=C(O)C(Cc1ccccc1)N=Cc1nc(-c2ccccc2)oc1O (centres undefined)" observationtype=TGI value="> 100 µM"
compound="COc1ccccc1N1C(=O)CSC1c1cccc(Oc2ccccc2)c1 (centres undefined)" observationtype=TGI value="34.7 µM"
compound=NC(CCl)=NCC12CC3CC(CC(C3)C1)C2 observationtype=TGI value="2.19 µM"
compound="CC1=C(O)C(=O)C2C(=O)C1C(C)C2c1ccccc1 (centres undefined)" observationtype=TGI value="> 100 µM"

Please examine the following record next.
(Q) For the compound shown here, O=C(N/N=C/c1ccc([N+](=O)[O-])cc1)c1ccccc1Nc1ccnc(C(F)(F)F)c1 , give the reported TGI.
(A) 38.3 µM

----------
The reader will find reported TGI values listed item by item below.
# Tested on: CAKI-1 renal
# assayName: NCI tumour cell line growth inhibition, 48 h

In the examples that follow, each entry is paired with its recorded TGI.
molecule="COc1cccc(C2SC(C)C(=O)N2NC(=O)C(O)c2ccccc2)c1 (configuration not stated)" observationtype=TGI value="> 100 µM"
molecule=CCOC(=O)C(=CNc1ccc(S(N)(=O)=O)cc1)C(=O)OCC observationtype=TGI value="> 100 µM"
molecule=Brc1ccc2nc(-c3cccs3)nc(N3CCN(c4ccccc4)CC3)c2c1 observationtype=TGI value="> 100 µM"
molecule=NC(=O)c1ccc(I)c([N+](=O)[O-])c1 observationtype=TGI value="> 57.4 µM"
molecule=Cc1ccc([N+](=O)[O-])cc1NC(=O)C(=O)Cc1nc2ccc(C(=O)c3ccccc3)cc2[nH]c1=O observationtype=TGI value="> 100 µM"

(Q) Sample COc1ccc(N[C@H](CS(=O)c2ccc(C)cc2)C(F)(F)F)cc1 (some centres not stated) — what was its TGI?
(A) > 100 µM
